Recorded measurements of binding signal, one per entry
# measured-target: OsWRKY34 (Oryza sativa, UniProt Q0JBA9 1-250)
# Sequence (Q0JBA9 entry or part of it): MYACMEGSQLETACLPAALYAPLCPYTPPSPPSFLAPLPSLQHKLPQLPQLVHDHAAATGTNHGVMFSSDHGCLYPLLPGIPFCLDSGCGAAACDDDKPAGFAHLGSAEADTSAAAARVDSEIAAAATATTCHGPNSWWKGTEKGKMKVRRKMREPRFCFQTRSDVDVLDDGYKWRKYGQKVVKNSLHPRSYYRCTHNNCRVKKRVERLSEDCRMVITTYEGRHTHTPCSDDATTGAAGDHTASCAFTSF
# run-description: protein-binding microarray (RPBM); PBS, 2% BSA, 51.3 ng/ul salmon testes DNA, 50 uM zinc acetate, 200 nM TF, 25 C, 1 h; high values mean tight binding
# assay-context: protein: recombinant; tags: N-terminal polyhistidine and DsRed monomer fusion (pET32a); label: CyDye5-dUTP incorporated in the synthesized complementary strand; 3' TTTTT single-stranded linker to array surface; dsDNA, one strand shown
Whole data set: some 68,000 sequences, median “fluorescence intensity (a.u.)” near 9,100, cut for the highest 2% near 16,000. The list comes from a sample in which the highest values are over-represented; it also holds close analogues and randomly drawn sequences.
test-readout: binding signal

                                      chain    test_readout                       recorded_value
0  TTCGAAATATTTGACACCGTTGACTTTTTAGCACATGTTTCGGAGTCACCTAGTGCAG  binding signal  30000 fluorescence intensity (a.u.)
1  GCCGGATCCAGATCTCCACCGCCTCGCCTCGCCGCGCCGCCGGAGTCACCTAGTGCAG  binding signal  10400 fluorescence intensity (a.u.)
2  AAACCTCGCATGCCAATAGTTGGGAACGCCGGGGCGGGGTCGGAGTCACCTAGTGCAG  binding signal   9340 fluorescence intensity (a.u.)
3  TCGAAATGTTTGACACCGTTGACTTTTTAGCACATGTTTACGGAGTCACCTAGTGCAG  binding signal  19000 fluorescence intensity (a.u.)
4  CAACCCCACCGCCGCCGCCGCAAACCGTCTCGCCGTCGCCCGGAGTCACCTAGTGCAG  binding signal  11600 fluorescence intensity (a.u.)

----------
// values below are reported binding signal
# measured-target: OsWRKY34 (Oryza sativa, UniProt Q0JBA9 1-250)
# run-description: protein-binding microarray (RPBM); PBS, 2% BSA, 51.3 ng/ul salmon testes DNA, 50 uM zinc acetate, 200 nM TF, 25 C, 1 h; high values mean tight binding
# assay-context: protein: recombinant; tags: N-terminal polyhistidine and DsRed monomer fusion (pET32a); label: CyDye5-dUTP incorporated in the synthesized complementary strand; 3' TTTTT single-stranded linker to array surface; dsDNA, one strand shown
The full ranking holds about 68,000 sequences; the median of “fluorescence intensity (a.u.)” is about 9,100, and the highest 2% start at about 16,000. The sample as a whole holds a higher share of the highest values than the screen did.
test-readout: binding signal

In [3]: df
Out[3]:
                                       chain                           measured_target    test_readout                       recorded_value
 0  TATGCATACTTTTTTATCACTGTAGTTACTAGCTAAGATCCGGAGTCACCTAGTGCAG  OsWRKY34 (Oryza sativa, UniProt Q0JBA9 1-250)  binding signal   9000 fluorescence intensity (a.u.)
 1  CCGACCCGACCCGACCACCCACCGGCGAGGCCCACTCCGTCGGAGTCACCTAGTGCAG  OsWRKY34 (Oryza sativa, UniProt Q0JBA9 1-250)  binding signal   8620 fluorescence intensity (a.u.)
 2  CTAGTAGTGCACACAAGCGGCAGCAGGAGGGGAGGGTGGTCGGAGTCACCTAGTGCAG  OsWRKY34 (Oryza sativa, UniProt Q0JBA9 1-250)  binding signal   9190 fluorescence intensity (a.u.)
 3  TGCTAAACCTGTGGTGTTAAATCTGGCTGGTTGCCTGTCTCGGAGTCACCTAGTGCAG  OsWRKY34 (Oryza sativa, UniProt Q0JBA9 1-250)  binding signal   9280 fluorescence intensity (a.u.)
 4  TGCAGATATTGGCATCGATTGCTCACTTCAGGTGATTTTTCGGAGTCACCTAGTGCAG  OsWRKY34 (Oryza sativa, UniProt Q0JBA9 1-250)  binding signal   8060 fluorescence intensity (a.u.)
 5  TCTGTATATAAGGCCTGATTTAGTTCCCAAATTTTTTTTCCGGAGTCACCTAGTGCAG  OsWRKY34 (Oryza sativa, UniProt Q0JBA9 1-250)  binding signal   8100 fluorescence intensity (a.u.)
 6  ACTCGTTGACCAAAGGGAGTGGAGTTTGAAAGGGTGGGAGCGGAGTCACCTAGTGCAG  OsWRKY34 (Oryza sativa, UniProt Q0JBA9 1-250)  binding signal  14600 fluorescence intensity (a.u.)
 7  TCTTTCATACGGAATTCCTTTTCATTATTGGATGCCAGCTCGGAGTCACCTAGTGCAG  OsWRKY34 (Oryza sativa, UniProt Q0JBA9 1-250)  binding signal   9330 fluorescence intensity (a.u.)
 8  CGCCTGTCAAATCCTAGTCAGGGAATCTGTCTTCCATCTACGGAGTCACCTAGTGCAG  OsWRKY34 (Oryza sativa, UniProt Q0JBA9 1-250)  binding signal   9100 fluorescence intensity (a.u.)
 9  ATTCTGTATTTATTGTTTGCTGCATTCAGTTTGATTGGTTCGGAGTCACCTAGTGCAG  OsWRKY34 (Oryza sativa, UniProt Q0JBA9 1-250)  binding signal  13900 fluorescence intensity (a.u.)
10  TCGGTTGGTTGGGAATTTCCATGACTATTTTCACCTATAACGGAGTCACCTAGTGCAG  OsWRKY34 (Oryza sativa, UniProt Q0JBA9 1-250)  binding signal   8650 fluorescence intensity (a.u.)
11  GCATTCGTTTCAGGCTGTTCCCAACCTCTCTCCCTTGTTTCGGAGTCACCTAGTGCAG  OsWRKY34 (Oryza sativa, UniProt Q0JBA9 1-250)  binding signal  12000 fluorescence intensity (a.u.)
12  TGGTCAAGCCCTTTTTGATCTTTTTTTTTCTGTCTCATGCCGGAGTCACCTAGTGCAG  OsWRKY34 (Oryza sativa, UniProt Q0JBA9 1-250)  binding signal   9610 fluorescence intensity (a.u.)
13  CCTATATCATCCTTTGATAAGATCGACTGTTTGCTATTTACGGAGTCACCTAGTGCAG  OsWRKY34 (Oryza sativa, UniProt Q0JBA9 1-250)  binding signal   9940 fluorescence intensity (a.u.)
14  GTCTTTTGGTGGGTGGGAAATCACTTCCATTTCCCATTAGCGGAGTCACCTAGTGCAG  OsWRKY34 (Oryza sativa, UniProt Q0JBA9 1-250)  binding signal  11300 fluorescence intensity (a.u.)
15  CGCCCACCCACGCATCCATCCATCGATCGCAGCCAAATTCCGGAGTCACCTAGTGCAG  OsWRKY34 (Oryza sativa, UniProt Q0JBA9 1-250)  binding signal   9430 fluorescence intensity (a.u.)
16  TGTCTTTATTAAGTGCAAATGTATTTGGATTCCAACCCTTCGGAGTCACCTAGTGCAG  OsWRKY34 (Oryza sativa, UniProt Q0JBA9 1-250)  binding signal   8180 fluorescence intensity (a.u.)
17  GGCTTTTTTGTTGGGCTTCTTTTGATCAAAAACGTTGTTTCGGAGTCACCTAGTGCAG  OsWRKY34 (Oryza sativa, UniProt Q0JBA9 1-250)  binding signal  12000 fluorescence intensity (a.u.)
18  GGAGGAGAGAGGGGTGGGGTTTGTGGTGTCGTCGTCCATGCGGAGTCACCTAGTGCAG  OsWRKY34 (Oryza sativa, UniProt Q0JBA9 1-250)  binding signal  11700 fluorescence intensity (a.u.)

Values compiled from paper PMC7819943.
